I'd be grateful if you could share measured inhibition for these entries.
# test.summary: inhibitors of TNFa-induced NFkB p65 translocation, primary screen, imaging, HUVEC, MLSMR starter and 10KST1 sets (AID 438);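 also: compound added about 3h40 before a 20 min TNFalpha stimulation; signal is the nuclear over cytoplasmic p65 intensity ratio per well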
# condition.set: HUVEC TNFa-induced p65 nuclear translocation; at 2 µM, hits give high values, 0% TNFa-plus-vehicle, 100% no-TNFa wells
Provide the reading as a plain figure in %.

Quick note, inhibition for "Cc1cc(C(F)F)n2nc(C(=O)Nc3ccc(S(=O)(=O)N4CCCCCC4)cc3)nc2n1" landed at -6.2

Quick note, inhibition for "COc1cccc(NC(=O)c2ccccc2NS(C)(=O)=O)c1" landed at -6.5

Quick note, inhibition for "COc1cccc(NC(=O)C2CCN(c3ncccn3)CC2)c1" landed at -18.4

Quick note, inhibition for "CC(C)(C)n1nnnc1CN(Cc1ccco1)Cc1cc2cc3c(cc2[nH]c1=O)OCO3" landed at 13.3

Quick note, inhibition for "O=C(COc1nnc2ccccn12)N1CCN(S(=O)(=O)c2ccccc2)CC1" landed at -3.3

Quick note, inhibition for "Cc1cc(NC(=O)C2CCCC2)nc2c1c(=O)oc1ccccc12" landed at -3.4

Quick note, inhibition for "Cc1cccc(-n2c(SCc3cc(=O)n4ccsc4n3)nc3ccccc32)c1" landed at 5.1

Quick note, inhibition for "COC(=O)CSc1nnc(-c2ccc(OC)cc2OC)o1" landed at 6.3

Quick note, inhibition for "CCOc1ccccc1OCCn1nnc2ccccc21" landed at -0.2

Quick note, inhibition for CC1Cc2nc(SCC(=O)N3CCCc4ccccc43)n(C)c(=O)c2S1 (configuration not stated) landed at 0.5

Quick note, inhibition for "COc1cc(NC(=O)c2ccco2)c(OC)cc1NC(=O)CCC(=O)Nc1cc(C)cc(C)c1" landed at -0.3

Quick note, inhibition for "C=CCOc1ccc(CN(C)CC(=O)N(CC(C)C)c2c(N)n(CC(C)C)c(=O)[nH]c2=O)cc1" landed at 8.3

Quick note, inhibition for "CCc1nccn1S(=O)(=O)c1ccc(C)c(C)c1" landed at -11.5

Quick note, inhibition for "O=C(CSc1ncccn1)c1ccccc1Br" landed at 2.9

Quick note, inhibition for CCOC(=O)c1ccc(N2C(=O)C3CC=CCC3C2=O)cc1 (configuration not stated) landed at -6.3

Quick note, inhibition for COc1cc2cc(C(c3nnnn3C3CCCC3)N3CCCCCC3)c(=O)[nH]c2cc1OC (configuration not stated) landed at -13.3

Quick note, inhibition for "O=C(CSc1nc(C2CCCCC2)n(-c2ccccc2)n1)NCCN1C(=O)CSC1=O" landed at -5.9

Quick note, inhibition for "CCCS(=O)(=O)C(=C1Nc2ccccc2N1)S(=O)(=O)CCC" landed at -7

Quick note, inhibition for "COC(=O)Cn1c(CN2CCOCC2)nc2c1c(=O)n(C)c(=O)n2C" landed at -18.4

Quick note, inhibition for "O=c1c2ccc(-c3nnc4n3-c3ccccc3SC4)cc2nc2n1CCCCC2" landed at -1.1

Quick note, inhibition for "CCOc1ccccc1N1CC(O)=C(c2nc3ccccc3s2)C1=N" landed at -0.8

Quick note, inhibition for "COc1ccc(N(CC(=O)Nc2ccc3c(c2)OCCO3)S(=O)(=O)c2cccnc2)cc1" landed at -3.3
